I'd be grateful if you could share measured IC50 for these entries.
measurement_target: AKT1 E17K (Homo sapiens, UniProt P31749, E17K)
Construct: expressed in transfected cells; host or cells: HEK293
Sequence (P31749 whole entry E17K): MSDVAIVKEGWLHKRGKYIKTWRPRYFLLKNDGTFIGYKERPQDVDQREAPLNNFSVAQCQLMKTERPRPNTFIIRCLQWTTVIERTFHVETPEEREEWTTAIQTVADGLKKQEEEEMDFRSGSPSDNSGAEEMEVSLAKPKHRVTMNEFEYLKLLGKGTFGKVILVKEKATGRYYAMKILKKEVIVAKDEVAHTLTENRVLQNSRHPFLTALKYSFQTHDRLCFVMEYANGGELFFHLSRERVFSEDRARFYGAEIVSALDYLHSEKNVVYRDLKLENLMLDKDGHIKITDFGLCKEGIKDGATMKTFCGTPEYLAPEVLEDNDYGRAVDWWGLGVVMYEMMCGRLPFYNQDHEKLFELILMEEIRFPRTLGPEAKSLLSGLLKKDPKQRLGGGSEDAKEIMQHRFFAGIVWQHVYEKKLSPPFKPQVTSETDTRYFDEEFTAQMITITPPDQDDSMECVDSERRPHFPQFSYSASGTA
protocol_details: Live cell AKT1 E17K target engagement by NanoBRET competitive probe displacement in HEK293 cells
Format: binding
condition: NanoBRET competitive probe displacement, live HEK293 cells, 2 h at 37° C.
Use nM as the unit, but write only the number.

Q) Tell me measured IC50 for Nc1ncccc1-c1nc2ccc(-n3nccn3)nc2n1-c1ccc2c(c1)CC[C@@H]2NC(=O)c1ccc(C2CC2)nc1 [Compound 491] please.
A) 23.6

Q) Please supply the value of reported IC50 for the item N#Cc1nccc(N2CC(N[C@H]3CCc4cc(-n5c(-c6cccnc6N)nc6ccc(-n7cccn7)nc65)ccc43)C2)n1 [Compound 581]
A) 20.8

Q) Indicate its recorded IC50; the compound in question is COc1cnc(C#N)nc1N1CCC(N[C@H]2CCc3cc(-n4c(-c5cccnc5N)nc5ccc(-n6cccn6)nc54)ccc32)CC1 [Cpd 586]
A) 17.3

Q) Give the reported value of IC50 for this record: Nc1ncccc1-c1nc2ccc(-n3ccc(OCCN4CCOCC4)n3)nc2n1-c1ccc2c(c1)CC[C@@H]2NC1CCN(C(=O)C2CC2)CC1 [Compound 505]
A) 485

Q) Could you please provide reported IC50 for Nc1ncccc1-c1nc2ccc(-n3nccn3)nc2n1-c1ccc2c(c1)CC[C@@H]2NC(=O)c1cnc(C(F)F)s1 [Compound 427] ? Thanks!
A) 101

Q) Provide only the value of recorded IC50 for O=C(N[C@H]1CCc2cc(-n3c(-c4ccccc4)nc4ccc(-c5ccn(C6CC6)n5)nc43)ccc21)c1ccc(C(F)F)nc1 [Compound 432]
A) 145
